- assayed_system: CREBBP (1084-1701) (Homo sapiens)
- Construct: measured in the following biochemical assay using CREBBP (1084-1701); purchased
- Sequence (Q92793 1084-1701): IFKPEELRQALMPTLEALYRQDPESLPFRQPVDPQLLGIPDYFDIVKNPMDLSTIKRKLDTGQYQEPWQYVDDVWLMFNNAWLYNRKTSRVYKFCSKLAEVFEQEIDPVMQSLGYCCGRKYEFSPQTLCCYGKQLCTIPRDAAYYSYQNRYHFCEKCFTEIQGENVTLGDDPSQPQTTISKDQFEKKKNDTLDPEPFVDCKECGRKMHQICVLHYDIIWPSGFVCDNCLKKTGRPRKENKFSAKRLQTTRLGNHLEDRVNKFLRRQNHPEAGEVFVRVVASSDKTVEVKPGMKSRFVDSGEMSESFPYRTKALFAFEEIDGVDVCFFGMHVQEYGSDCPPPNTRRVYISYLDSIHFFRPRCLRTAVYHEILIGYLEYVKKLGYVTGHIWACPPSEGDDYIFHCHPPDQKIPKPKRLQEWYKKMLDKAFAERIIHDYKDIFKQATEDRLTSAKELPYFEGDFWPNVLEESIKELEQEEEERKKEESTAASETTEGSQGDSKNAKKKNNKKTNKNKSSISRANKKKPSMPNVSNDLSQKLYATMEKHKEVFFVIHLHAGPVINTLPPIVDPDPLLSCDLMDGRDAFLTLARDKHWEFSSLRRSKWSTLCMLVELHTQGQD
- assay_summary: Biochemical assay for CREBBP (1084-1701), SAMDI
- condition_label: SAMDI, read-out: CREBBP Biochemistry IC50
- Protocol: The following example describes materials and methods relating to a biochemical assay for CREBBP (1084-1701). IC50 values (micromolar (μM)) are summarized in Table 1, Table 2, and Table 3 under the column labeled: “CREBBP Biochemistry IC50 (micromolar).” […] METHODS: The effect of compounds was measured in the following biochemical assay using CREBBP (1084-1701). […] The SAMDI biochip was then read on the mass spectrometer.
value_kind: IC50 (nM)

Solved cases (3 shown):
# compound, IC50 (nM)
data = [
    ("CCn1ncc(CN(C)C(=O)c2nc(-c3cc(C)cc(N[C@H]4CCNC4)c3)nc3ccc(Cl)cc23)c1C", 28.5),
    ("CCn1ncc(CN(C)C(=O)c2nc(-c3ccc(OCCCNC)c(C(C)(C)C)c3)nc3ccc(Cl)cc23)c1C", 9700),
    ("CCn1ncc(CN(C)C(=O)c2nc(-c3ccnc(NC)c3)nc3ccc(Cl)cc23)c1C", 35000),
]

a: CCn1ncc(CN(C)C(=O)c2nc(-c3ccc(NC4CCOCC4)c(C)c3)nc3ccc(Cl)cc23)c1C
b: CCN(Cc1cnn(CC)c1C)C(=O)c1cc(-c2ccccc2Cl)nc2ccc(Cl)cc12
stdin: Sorting by IC50 in descending order, would a or b appear first? Respond with the label that goes with your answer.
stdout: b
(b: 2500 nM, a: 16 nM)

1: CC1CCCc2c(CN(C)C(=O)c3cc(-c4cccc(Cl)c4)nc4ccc(Cl)cc34)cnn21 (stereo not drawn)
2: CCc1ccc2c(C(=O)N(C)Cc3cnn(CC)c3C)cc(-c3ccccc3Cl)nc2c1
3: CCn1ncc(CN(C)C(=O)c2nc(-c3ccc(OCCNC)cc3Cl)nc3ccc(Cl)cc23)c1C
4: CCn1ncc(CN(C)C(=O)c2nc(-c3ccc(OCCOC)cc3Cl)nc3ccc(Cl)cc23)c1C
stdin: Descending sort on IC50 required. // ordering of labels required in reply
stdout: 2, 1, 4, 3

A: CCn1ncc(CN(C)C(=O)c2cc(-c3ccc(NC4CCNC4)c(C)n3)nc3ccc(Cl)cc23)c1C (stereo not drawn)
B: CCn1ncc(CN(C)C(=O)c2cc(-c3ccc(NCCNC)cn3)nc3ccc(Cl)cc23)c1C
C: CCn1ncc(CN(C)C(=O)c2nc(-c3ccc(OCCNC)c(Cl)c3)nc3ccc(OC)cc23)c1C
D: CCn1ncc(CN(C)C(=O)c2nc(-n3nc(N)c4ccc(C)cc43)nc3ccc(Cl)cc23)c1C
stdin: Descending sort on IC50 required. // ordering of labels required in reply
stdout: D, C, B, A
(D: 10000 nM, C: 3600 nM, B: 56 nM, A: 25.4 nM)

I: CCn1ncc(CN(C)C(=O)c2nc(-c3cccc(Cl)c3)nc3ccc(COC)cc23)c1C
II: CCc1ncc(CN(C)C(=O)c2nc(-c3cccc(Cl)c3)nc3ccc(Cl)cc23)n1C
III: CCn1ncc(CN(C)C(=O)c2nc(-c3ccccc3F)nc3ccc(Cl)cc23)c1C
IV: CCn1ncc(CN(C)C(=O)c2cc(-c3cc(C)c(OCCNC)cn3)nc3ccc(Cl)cc23)c1C
stdin: Descending sort on IC50 required. // ordering of labels required in reply
stdout: IV, III, I, II
(IV: 5500 nM, III: 530 nM, I: 28 nM, II: 3.4 nM)
